Where do these numbers come from? They come from ChEMBL document CHEMBL1154824.

Exercise: for every item that follows, state its recorded IC50.
test system: K562; assay: Cytotoxicity against human K562 cells by MTT assay; type: functional, cell-based
Only the number, expressed in µM, is required.

Fill in the blank: the reported IC50 of CC1=CCC[C@H]2[C@](C)(CC3=CC(=O)C(SC(C)C)=CC3=O)[C@@H](C)CC[C@]12C is ____.
47.5

And CC1=CCC[C@H]2[C@](C)(CC3=CC(=O)C=C(Sc4ccccc4)C3=O)[C@@H](C)CC[C@]12C ?
17.4

And CNC1=CC(=O)C(C[C@]2(C)[C@@H](C)CC[C@]3(C)C(C)=CCC[C@@H]23)=CC1=O ?
9.3

And CC1=CCC[C@H]2[C@](C)(CC3=CC(=O)C(Sc4ccccc4)=CC3=O)[C@@H](C)CC[C@]12C ?
15.2

And CCCCSC1=CC(=O)C(C[C@]2(C)[C@@H](C)CC[C@]3(C)C(C)=CCC[C@@H]23)=CC1=O ?
12.5

And CC1=CCC[C@H]2[C@](C)(CC3=CC(=O)C(SCC(C)C)=CC3=O)[C@@H](C)CC[C@]12C ?
39

And CC1=CCC[C@H]2[C@](C)(CC3=CC(=O)C(SC(C)(C)C)=CC3=O)[C@@H](C)CC[C@]12C ?
25.7

And COC1=CC(=O)C=C(C[C@]2(C)[C@@H](C)CC[C@]3(C)C(C)=CCC[C@@H]23)C1=O ?
2.1

And CC1=CCC[C@H]2[C@](C)(CC3=CC(=O)C=CC3=O)[C@@H](C)CC[C@]12C ?
4.9

And CC1=CCC[C@H]2[C@](C)(CC3=CC(=O)C4=C(SCCS4)C3=O)[C@@H](C)CC[C@]12C ?
91

And CC1CCC[C@H]2[C@](C)(CC3=CC(=O)C(Cl)=CC3=O)[C@@H](C)CC[C@]12C (some centres undefined) ?
11.2

And CCCSC1=CC(=O)C(C[C@]2(C)[C@@H](C)CC[C@]3(C)C(C)=CCC[C@@H]23)=CC1=O ?
45.5

And CC1=CCC[C@H]2[C@](C)(Cc3cc(O)ccc3O)[C@@H](C)CC[C@]12C ?
7.3

---

system: Artemia salina; assay: Toxicity against freshly hatched nauplii of brine shrimp after 24 hrs; assay type: organism-based; conditions: in vivo
Exercise: for every item that follows, state its recorded LC50.
Only the number, expressed in ppm, is required.

Fill in the blank: the reported LC50 of CC1CCC[C@H]2[C@](C)(CC3=CC(=O)C(Cl)=CC3=O)[C@@H](C)CC[C@]12C (stereo not given in full) is ____.
0.65

And CC1=CCC[C@H]2[C@](C)(Cc3cc(O)ccc3O)[C@@H](C)CC[C@]12C ?
0.18

And CC1=CCC[C@H]2[C@](C)(CC3=CC(=O)C4=C(SCCS4)C3=O)[C@@H](C)CC[C@]12C ?
2045

And CC1=CCC[C@H]2[C@](C)(CC3=CC(=O)C(SC(C)C)=CC3=O)[C@@H](C)CC[C@]12C ?
0.44

And CCCCSC1=CC(=O)C(C[C@]2(C)[C@@H](C)CC[C@]3(C)C(C)=CCC[C@@H]23)=CC1=O ?
0.92

And COC1=CC(=O)C=C(C[C@]2(C)[C@@H](C)CC[C@]3(C)C(C)=CCC[C@@H]23)C1=O ?
0.02

And CC1=CCC[C@H]2[C@](C)(CC3=CC(=O)C(SC(C)(C)C)=CC3=O)[C@@H](C)CC[C@]12C ?
0.89

And CCCSC1=CC(=O)C(C[C@]2(C)[C@@H](C)CC[C@]3(C)C(C)=CCC[C@@H]23)=CC1=O ?
0.2

And CC1=CCC[C@H]2[C@](C)(CC3=CC(=O)C=CC3=O)[C@@H](C)CC[C@]12C ?
0.14

---

Exercise: for every item that follows, state its recorded LC50.
system: Artemia salina; assay: Toxicity against freshly hatched nauplii of brine shrimp after 24 hrs; type: organism-based; conditions: in vivo
Only the number, expressed in ppm, is required.

Fill in the blank: the reported LC50 of CC1=CCC[C@H]2[C@](C)(CC3=CC(=O)C=C(Sc4ccccc4)C3=O)[C@@H](C)CC[C@]12C is ____.
32.33

And CNC1=CC(=O)C(C[C@]2(C)[C@@H](C)CC[C@]3(C)C(C)=CCC[C@@H]23)=CC1=O ?
0.34

And CC1=CCC[C@H]2[C@](C)(CC3=CC(=O)C(SCC(C)C)=CC3=O)[C@@H](C)CC[C@]12C ?
0.17

And CC1=CCC[C@H]2[C@](C)(CC3=CC(=O)C(Sc4ccccc4)=CC3=O)[C@@H](C)CC[C@]12C ?
30.21

---

Exercise: for every item that follows, state its recorded MIC.
test system: Staphylococcus aureus; test: Antibacterial activity against Staphylococcus aureus ATCC 25923 by serial dilution method; format: functional
Only the number, expressed in µg/mL, is required.

Fill in the blank: the reported MIC of CC1=CCC[C@H]2[C@](C)(CC3=CC(=O)C=C(Sc4ccccc4)C3=O)[C@@H](C)CC[C@]12C is ____.
12.5

And COC1=CC(=O)C=C(C[C@]2(C)[C@@H](C)CC[C@]3(C)C(C)=CCC[C@@H]23)C1=O ?
25

And CC1=CCC[C@H]2[C@](C)(CC3=CC(=O)C=CC3=O)[C@@H](C)CC[C@]12C ?
6.25

And CC1=CCC[C@H]2[C@](C)(Cc3cc(O)ccc3O)[C@@H](C)CC[C@]12C ?
12.5

---

test: Cytotoxicity against human Fem-X cells assessed as decrease in total cellular protein by kenacid blue R binding method; format: functional, cell-based
MEASUREMENT_KIND: pIC50
Worth noting: pIC50 values are minus log10 of concentrations stated in mol/L.

Fill in the blank: the reported pIC50 of CC1=CCC[C@H]2[C@](C)(Cc3cc(O)ccc3O)[C@@H](C)CC[C@]12C [AVAROL] is ____.
4.66

And CC1=CCC[C@H]2[C@](C)(CC3=CC(=O)C(Sc4ccccc4)=CC3=O)[C@@H](C)CC[C@]12C ?
4.37

And CC1=CCC[C@H]2[C@](C)(CC3=CC(=O)C(SCC(C)C)=CC3=O)[C@@H](C)CC[C@]12C ?
4.05

And CNC1=CC(=O)C(C[C@]2(C)[C@@H](C)CC[C@]3(C)C(C)=CCC[C@@H]23)=CC1=O ?
5.62

And COC1=CC(=O)C=C(C[C@]2(C)[C@@H](C)CC[C@]3(C)C(C)=CCC[C@@H]23)C1=O ?
5.01

And CC1=CCC[C@H]2[C@](C)(CC3=CC(=O)C(SC(C)C)=CC3=O)[C@@H](C)CC[C@]12C ?
4.07

And CC1=CCC[C@H]2[C@](C)(CC3=CC(=O)C=CC3=O)[C@@H](C)CC[C@]12C [AVARONE] ?
4.62

And CC1=CCC[C@H]2[C@](C)(CC3=CC(=O)C(SC(C)(C)C)=CC3=O)[C@@H](C)CC[C@]12C ?
4.42

And CCCSC1=CC(=O)C(C[C@]2(C)[C@@H](C)CC[C@]3(C)C(C)=CCC[C@@H]23)=CC1=O ?
4.05

And CC1=CCC[C@H]2[C@](C)(CC3=CC(=O)C4=C(SCCS4)C3=O)[C@@H](C)CC[C@]12C ?
4.12

And CCCCSC1=CC(=O)C(C[C@]2(C)[C@@H](C)CC[C@]3(C)C(C)=CCC[C@@H]23)=CC1=O ?
4.61

And CC1CCC[C@H]2[C@](C)(CC3=CC(=O)C(Cl)=CC3=O)[C@@H](C)CC[C@]12C (some centres undefined) ?
4.49

And CC1=CCC[C@H]2[C@](C)(CC3=CC(=O)C=C(Sc4ccccc4)C3=O)[C@@H](C)CC[C@]12C ?
4.38
